The reported numbers originate from PubChem BioAssay (NCI).

- Test system: SK-MEL-28 melanoma
- protocol: NCI tumour cell line growth inhibition, 48 h; in the data active means GI50 below about 0.43 µM; inactive means the rest
Classes used: active, inactive

# compound, systemTested, qualitativeLabel
records = [
    ("O=C(Nc1nc2ccc(C(F)(F)F)cc2s1)c1cc(Cl)ccc1O", "SK-MEL-28 melanoma", "active"),
    ("CCCCCCCCCCCCCC1=NC(C)(C)CN1C(C)C", "SK-MEL-28 melanoma", "inactive"),
    ("C=C1CC[C@@H]2[C@](C)(COC(C)=O)[C@H](OC(C)=O)CC[C@@]2(C)[C@@H]1CC(Sc1ccccc1)C1=CCOC1=O (some centres undefined)", "SK-MEL-28 melanoma", "inactive"),
    ("Clc1nc2ccccc2nc1CI", "SK-MEL-28 melanoma", "inactive"),
]
